# reported inhibition; entries follow
- system tested: Human immunodeficiency virus type 1 protease (Human immunodeficiency virus 1) (UniProt Q72874)
- experiment description: Inhibitory activity against HIV-1 Protease using Suc-TLNFPIS-4-AMC as substrate in fluorescence assay at 10e-5 concentration
Starred links: 1 amine or outer side, 2 acyl side, 3 side chain; linkers in the order of their positions; H or OH if unused. Non-standard residues stand in square brackets, D forms with d. Residues, ends and D or L forms follow the SMILES beside them. *: point of attachment. X1 = O=C(CN(CC(Br)CBr)[*:1])[*:2]; X3 = O=C(CN(CC(Cl)CCl)[*:1])[*:2]; NAllylGly = C=CCNCC(=O)O; Boc = CC(C)(C)OC(=O)*

compound	result
CC[C@H](C)[C@H](NC(=O)CN(CC(Cl)CCl)C(=O)[C@H](Cc1ccccc1)NC(=O)[C@H](C)NC(=O)OC(C)(C)C)C(=O)N[C@H](C(=O)OC)C(C)C (stereo partly specified) (Boc-AF[X3]IV-OMe)	0%

Asked: Data request, read-out inhibition, for C=CCN(CC(=O)N[C@H](C(=O)N[C@H](C(=O)OC)C(C)C)[C@@H](C)CC)C(=O)[C@H](Cc1ccccc1)NC(=O)[C@H](C)NC(=O)[C@H](C)NC(=O)[C@H](CO)NC(=O)OC(C)(C)C (Boc-SAAF[NAllylGly]IV-OMe)
Given back: 0%

Asked: Likewise for C=CCN(CC(=O)N[C@H](C(=O)N[C@H](C(=O)OC)C(C)C)[C@@H](C)CC)C(=O)[C@H](Cc1ccccc1)NC(=O)OC(C)(C)C (Boc-F[NAllylGly]IV-OMe) ?
Given back: 0%

Asked: Likewise for CC[C@H](C)[C@H](NC(=O)CN(CC(Br)CBr)C(=O)[C@H](Cc1ccccc1)NC(=O)OC(C)(C)C)C(=O)N[C@H](C(=O)OC)C(C)C (stereo partly specified) ?
Given back: 0%

Asked: Likewise for `C=CCN(C(=O)[C@H](Cc1ccccc1)NC(=O)OC(C)(C)C)[C@@H](C)C(=O)N[C@H](C(=O)N[C@H](C(=O)OC)C(C)C)[C@@H](C)CC` ?
Given back: 3%

Asked: Likewise for CC[C@H](C)[C@H](NC(=O)CN(CC(Br)CBr)C(=O)[C@H](Cc1ccccc1)NC(=O)[C@H](C)NC(=O)OC(C)(C)C)C(=O)N[C@H](C(=O)OC)C(C)C (stereo partly specified) (Boc-AF[X1]IV-OMe) ?
Given back: 0%

====

- system tested: Human immunodeficiency virus type 1 protease (Human immunodeficiency virus 1)
- experiment description: Inhibitory activity against HIV-1 Protease using Suc-TLNFPIS-4-AMC as substrate in fluorescence assay at 10e-5 concentration
Starred links: 1 amine or outer side, 2 acyl side, 3 side chain; linkers in the order of their positions; H or OH if unused. Non-standard residues stand in square brackets, D forms with d. Residues, ends and D or L forms follow the SMILES beside them. *: point of attachment. X2 = C=CCN([C@@H](C)C(=O)[*:2])[*:1]; NAllylGly = C=CCNCC(=O)O; Boc = CC(C)(C)OC(=O)*
value kind: inhibition (%)
State just the number; it will be interpreted in %.

Asked: Data request, read-out inhibition, for C=CCN(C(=O)[C@H](Cc1ccccc1)NC(=O)[C@H](C)NC(=O)OC(C)(C)C)[C@@H](C)C(=O)N[C@H](C(=O)N[C@H](C(=O)OC)C(C)C)[C@@H](C)CC (Boc-AF[X2]IV-OMe)
Given back: 0

Asked: Likewise for C=CCN(CC(=O)N[C@H](C(=O)N[C@H](C(=O)OC)C(C)C)[C@@H](C)CC)C(=O)[C@H](Cc1ccccc1)NC(=O)[C@H](C)NC(=O)OC(C)(C)C (Boc-AF[NAllylGly]IV-OMe) ?
Given back: 0

Asked: Likewise for C=CCN(CC(=O)N[C@H](C(=O)N[C@H](C(=O)OC)C(C)C)[C@@H](C)CC)C(=O)[C@H](Cc1ccccc1)NC(=O)[C@H](C)NC(=O)[C@H](C)NC(=O)OC(C)(C)C (Boc-AAF[NAllylGly]IV-OMe) ?
Given back: 0

Asked: Likewise for C=CCN(C(=O)[C@H](Cc1ccccc1)NC(=O)[C@H](C)NC(=O)[C@H](C)NC(=O)OC(C)(C)C)[C@@H](C)C(=O)N[C@H](C(=O)N[C@H](C(=O)OC)C(C)C)[C@@H](C)CC (Boc-AAF[X2]IV-OMe) ?
Given back: 1

Asked: Likewise for CC[C@H](C)[C@H](NC(=O)CN(CC(Cl)CCl)C(=O)[C@H](Cc1ccccc1)NC(=O)OC(C)(C)C)C(=O)N[C@H](C(=O)OC)C(C)C (stereo not given in full) ?
Given back: 0
